Values from the supplement of paper PMC9732359

# Method Notes: protein stability index of a GFP-peptide fusion (yeast GPS) (PSI 1-4); higher = more stable; sorted into four equal gates, so the index is relative within each strain
# Conditions: doa10∆
For each record, write down the corresponding protein stability index.
One number for each entry.

VPPIASPQQFLRAHTDD [PRE2]: 2.02
QGIVRVYSKQATFLLTD [MCD1]: 1.97
LDPYERAIYSYLSGAIP [YDL116W/NUP84]: 2.83
IEITNSNDLCSQIFDQL [SRB8]: 2.67
TPLSIKIMVAEWYLSHL [SRB8]: 2.83

Below are some sequences; for each one, tell me its protein stability index.
1. SIKSKVVDHHVENELLQ [RRP42]
2. FTPEEEAAIRRENEWAE [SKP1]

Result:
[3.38, 3.01]

* * *

# Method Notes: protein stability index of a GFP-peptide fusion (yeast GPS) (PSI 1-4); higher = more stable; sorted into four equal gates, so the index is relative within each strain
# Conditions: san1∆
satisfied means recorded protein stability index is 2 or above; not satisfied means it is below 2.

KDSYINANTIETAKMIE [FAS2]: satisfied
KLWAEIIVKILYYRPHI [GRR1]: not satisfied
DSFIEKIIPKDISATQL [ITC1]: satisfied
VRVQRQKKILSIRLKVP [RPL8A]: not satisfied
FGSGTQNNNTLGGGGLF [YGR119C/NUP57]: satisfied

Query: Quick check: does KFGLLLQVSAQERKDFL [ECM29] have protein stability index greater than or equal to 2?
Result: not satisfied

Query: Quick check: does LDSTGFDSTAFNATVDE [MED2] have protein stability index greater than or equal to 2?
Result: satisfied

Query: Quick check: does GKVTDVRSTIKFQLKKV [RPL1A] have protein stability index greater than or equal to 2?
Result: satisfied

* * *

For each record, write down the corresponding protein stability index.
# Method Notes: protein stability index of a GFP-peptide fusion (yeast GPS) (PSI 1-4); higher = more stable; sorted into four equal gates, so the index is relative within each strain
# Conditions: doa10∆

Below are some sequences; for each one, tell me its protein stability index.
1. NTLYTAIITDDLDTVLK [SRP72]
2. VGPHFKQANNFLWPFKL [RPL7A]
3. FLSQGLHVVITLLREVV [CSN12]
4. GGGRVDKPLLKAGRAFH [RPL2A]
5. SVSGSPRPSYSSRPNVN [YMR129W/POM152]
6. EFANFELKDICSFAVTK [YML103C/NUP188]
7. DGLGNVVDFTSLPEELK [YMR129W/POM152]
8. RAAKLAAPENEKPAPVR [RPS15]

Result:
1: 2.19; 2: 2.71; 3: 1.49; 4: 3.12; 5: 2.8; 6: 2.07; 7: 3.4; 8: 3.21

Below are some sequences; for each one, tell me its protein stability index.
1. QTKEIKTERVEDQKVVD [RPL6B]
2. NRRWTQRRGPLVVYAED [RPL4A]
3. QYTQRLSKLEKALDRHE [SRP68]

Result:
3.55
2.44
2.52

* * *

# Method Notes: protein stability index of a GFP-peptide fusion (yeast GPS) (PSI 1-4); higher = more stable; sorted into four equal gates, so the index is relative within each strain
# Conditions: ubr1∆
1 means recorded protein stability index is 3 or above; -1 means it is below 3.

Worked examples, 5 sequences total:
FTPEEEAAIRRENEWAE [SKP1]: 1
LTGTVVSTKMHRTIVIR [RPS11A]: -1
AFTCFCIKKIMENNEPA [SRB8]: -1
EYQSLMSLKDKLLIQID [SMC1]: -1
MEDVKIQKEEEPENNTV [SWI3]: 1

Query: Quick check: does NHLDELQKKFVTKQSEL [SMC1] have protein stability index greater than or equal to 3?
Result: -1

Query: Quick check: does QTAVTCESCSTILCTPT [RPS27A] have protein stability index greater than or equal to 3?
Result: -1

Query: Quick check: does SARSSVHESLVTQSNIL [SRB8] have protein stability index greater than or equal to 3?
Result: -1

Query: Quick check: does EKSGISKMSDESFAELM [RPC17] have protein stability index greater than or equal to 3?
Result: 1

Query: Quick check: does GADVTNTTQDNGGDKEL [YCS4] have protein stability index greater than or equal to 3?
Result: 1

Query: Quick check: does NIVDSSAAGNKAIPTFS [YIL149C/MLP2] have protein stability index greater than or equal to 3?
Result: -1

Query: Quick check: does QLLTPGSKISSNDLDKF [YGL172W/NUP49] have protein stability index greater than or equal to 3?
Result: -1

Query: Quick check: does TLTELKDALSNSILSVR [SRB2] have protein stability index greater than or equal to 3?
Result: 1

Query: Quick check: does QIMQNPTHYKIPAWFLN [RPS18A] have protein stability index greater than or equal to 3?
Result: -1

Query: Quick check: does AMQYVCGDSIICNTLNI [SMC1] have protein stability index greater than or equal to 3?
Result: -1

Query: Quick check: does MDTSDDAFVATAFATEF [DLS1] have protein stability index greater than or equal to 3?
Result: -1

Query: Quick check: does RRVNQAIALLTIGAREA [RPS5] have protein stability index greater than or equal to 3?
Result: 1

Query: Quick check: does TRVNAQLESYEYMVQYI [RRI1] have protein stability index greater than or equal to 3?
Result: 1

Query: Quick check: does VRKAITVLFFIGVRCYE [FAS1] have protein stability index greater than or equal to 3?
Result: -1

Query: Quick check: does QGVTCLHLAVGKKWFEV [NAS6] have protein stability index greater than or equal to 3?
Result: 1

Query: Quick check: does IYQVPEKDLEHWLQLAK [POP1] have protein stability index greater than or equal to 3?
Result: 1

Query: Quick check: does KVGEDIAKATKEFKGIK [RPL12A] have protein stability index greater than or equal to 3?
Result: 1

Query: Quick check: does VVVAETSPEKKDGGDKP [YAR002W/NUP60] have protein stability index greater than or equal to 3?
Result: 1

Query: Quick check: does EYWAQRKKKFVLDVDPK [ISW2] have protein stability index greater than or equal to 3?
Result: 1

Query: Quick check: does SQIFDQLKDMQTIEMIT [SRB8] have protein stability index greater than or equal to 3?
Result: -1

Query: Quick check: does SENHTESDAPPKSTAPI [YOR098C/NUP1] have protein stability index greater than or equal to 3?
Result: -1

Query: Quick check: does EGLTYKYPARRIHTNDN [SSN3] have protein stability index greater than or equal to 3?
Result: -1

Query: Quick check: does HEYIRHLALEIGEVYND [RPN1] have protein stability index greater than or equal to 3?
Result: -1

Query: Quick check: does SAAAAGNRNSSSVFLPS [BRR2] have protein stability index greater than or equal to 3?
Result: 1
